RESULT_TYPE: melting point (°C)

COC(=O)C1CC(C(CC(O)C(CC2CCCCC2)NC(=O)C(Cc2c[nH]cn2)NC(=O)C(Cc2ccccc2)NC(=O)OC(C)(C)C)C(C)C)OC1=O (centres undefined)	95
CN1CCC(OC(c2cccc(-c3ccn[nH]3)c2)c2nc3ccccc3s2)CC1 (centres undefined)	90

* * *

Reported melting point values follow for various compounds

Use these answered entries as a reference point.
O=C(c1ccc(-c2ccccc2)cc1)C(Br)CCCl (stereo unspecified)	85 to 88 °C
CCCCCCCCCCCCCc1c(C(=O)O)sc2c(Br)csc12	88 to 90 °C
CC1=C(C(=O)OC2CC(C)(C)N(C)C(C)(C)C2)CC(C(=O)OC2CC(C)(C)N(C)C(C)(C)C2)=C(C)N1	232 °C
Cc1ccc2[nH]c(C(=O)O)cc2c1O	262 °C

(Q) // melting point lookup, key: Cc1ccc(-c2cc(C(=O)O)nn2Cc2ccc(C)c(Cl)c2)cc1
(A) 108 °C

(Q) Likewise for OCC(O)COc1noc2ccc(Cl)cc12 (stereo unspecified) ?
(A) 61 to 62 °C

(Q) Likewise for COc1ccc(Nc2c(C#N)cnc3cc(OC)c(OC)cc23)cc1OC ?
(A) 230 to 240 °C

(Q) Likewise for Nc1nc2ccc(C(O)C(CO)N3CCC(Cc4ccccc4)CC3)cc2s1 (stereo unspecified) ?
(A) 155 to 157 °C

(Q) Likewise for c1ccc2c(c1)OCCc1c-2n(CCCN2CCCCC2)c2ccccc12 ?
(A) 65 to 66 °C

(Q) Likewise for COc1ccc(CC(=O)O)cc1C12CC3CC(CC(C3)C1)C2 ?
(A) 78 to 79 °C

(Q) Likewise for CC(C)(C)c1cc(OCc2ccc(-c3nnn[nH]3)cc2)cc(C(C)(C)C)c1O ?
(A) 235 to 237 °C

(Q) Likewise for CCCCCCCCCCCCCCCCCCOc1ccc(C(=O)OC)c(OCCCOc2ccc(OCc3ccccc3)cc2)c1 ?
(A) 68 to 70 °C
